Taken from patent US12297235B2.

type: biochemical, human; settings: 0.77 mM peptide in factor B-depleted serum; mean of triplicate; standardized to water (soluble) or DMSO (insoluble)
measured_parameter: hemolysis (%)

{"columns": ["compound", "measured_parameter", "observed_value"],
 "data": [
  ["CC[C@H](C)[C@H](N)C(=O)N[C@@H](C)C(=O)N[C@@H](CC(C)C)C(=O)N[C@H](C(=O)N[C@@H](CC(C)C)C(=O)N[C@@H](CCC(=O)O)C(=O)N1CCC[C@H]1C(=O)N[C@H](C(=O)N[C@@H](CS)C(=O)N[C@@H](CS)C(=O)N[C@@H](CCC(N)=O)C(=O)N[C@@H](CCC(=O)O)C(=O)N[C@@H](CCCNC(=N)N)C(=O)N[C@@H](C)C(=O)N[C@@H](C)C(=O)O)[C@@H](C)CC)[C@@H](C)CC [PA]", "hemolysis", 3.15]
]}
